assay: Curcumin solubility in curcumin-emulsion mixtures, spectrophotometric (Example 3); type: physicochemical; conditions: excipient emulsion, aqueous with cosolvent or surfactant or cyclodextrin, thermodynamic from solid; incubation for 60 min at 30° C.

[
  {
    "structureSmiles": "COc1cc(/C=C/C(=O)CC(=O)/C=C/c2ccc(O)c(OC)c2)ccc1O",
    "solubility at 60 min": "~54 µg/mL"
  }
]

----------
Test: Curcumin solubility in curcumin-emulsion mixtures, spectrophotometric (Example 3)
Format: physicochemical
Details: excipient emulsion, aqueous with cosolvent or surfactant or cyclodextrin, thermodynamic from solid; incubation for 60 min at 90° C. (so in the source)
Description: Preparation of curcumin-emulsion, curcumin-oil, and curcumin-buffer mixtures. […] After incubation, selected samples were immediately placed in an ice water and then used for the following experiments. In some experiments, the curcumin was mixed with bulk corn oil or with buffer (PBS) solution rather than an emulsion. 1 mL of supernatant was then mixed with 5 mL chloroform, vortexed, and centrifuged at 1750 rpm for 10 min at ambient temperature. […]

[
  {
    "structureSmiles": "COc1cc(/C=C/C(=O)CC(=O)/C=C/c2ccc(O)c(OC)c2)ccc1O",
    "solubility at 60 min": "~218 µg/mL"
  }
]

Each recorded value in this set is attributed to patent US20170035691A1.
